- tested-on: androgen receptor (Homo sapiens, UniProt P10275, T878A)
- Construct: Several compounds were selected and serial diluted (10×) with RPMI medium for treating LNCaP.FGC cells; host or cells: LNCaP.FGC
- Sequence (P10275 whole entry T878A): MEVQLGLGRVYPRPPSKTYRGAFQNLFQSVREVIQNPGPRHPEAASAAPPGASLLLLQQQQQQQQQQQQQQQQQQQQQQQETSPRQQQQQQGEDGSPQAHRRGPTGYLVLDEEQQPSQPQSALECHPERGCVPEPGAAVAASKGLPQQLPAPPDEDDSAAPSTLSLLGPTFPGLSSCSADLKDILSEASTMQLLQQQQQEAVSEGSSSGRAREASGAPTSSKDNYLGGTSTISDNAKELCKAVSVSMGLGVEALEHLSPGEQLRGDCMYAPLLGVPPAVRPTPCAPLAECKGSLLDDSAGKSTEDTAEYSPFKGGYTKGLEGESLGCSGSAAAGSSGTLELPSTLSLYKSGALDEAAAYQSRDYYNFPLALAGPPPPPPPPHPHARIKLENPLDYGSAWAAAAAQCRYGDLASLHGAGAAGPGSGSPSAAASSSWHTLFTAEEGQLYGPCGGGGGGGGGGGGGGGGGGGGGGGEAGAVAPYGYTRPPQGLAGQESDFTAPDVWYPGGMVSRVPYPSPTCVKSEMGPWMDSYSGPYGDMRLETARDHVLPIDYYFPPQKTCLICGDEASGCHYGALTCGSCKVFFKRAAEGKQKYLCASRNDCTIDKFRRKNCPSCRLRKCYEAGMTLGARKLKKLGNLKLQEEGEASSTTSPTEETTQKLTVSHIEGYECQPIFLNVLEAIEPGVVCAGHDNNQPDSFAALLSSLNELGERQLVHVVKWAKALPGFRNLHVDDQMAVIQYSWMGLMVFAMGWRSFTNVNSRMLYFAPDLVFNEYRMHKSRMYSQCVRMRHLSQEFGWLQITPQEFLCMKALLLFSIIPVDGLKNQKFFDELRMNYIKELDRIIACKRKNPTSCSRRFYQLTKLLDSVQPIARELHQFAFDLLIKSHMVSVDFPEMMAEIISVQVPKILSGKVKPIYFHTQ
- Sequence (Q96SW2 whole entry partner): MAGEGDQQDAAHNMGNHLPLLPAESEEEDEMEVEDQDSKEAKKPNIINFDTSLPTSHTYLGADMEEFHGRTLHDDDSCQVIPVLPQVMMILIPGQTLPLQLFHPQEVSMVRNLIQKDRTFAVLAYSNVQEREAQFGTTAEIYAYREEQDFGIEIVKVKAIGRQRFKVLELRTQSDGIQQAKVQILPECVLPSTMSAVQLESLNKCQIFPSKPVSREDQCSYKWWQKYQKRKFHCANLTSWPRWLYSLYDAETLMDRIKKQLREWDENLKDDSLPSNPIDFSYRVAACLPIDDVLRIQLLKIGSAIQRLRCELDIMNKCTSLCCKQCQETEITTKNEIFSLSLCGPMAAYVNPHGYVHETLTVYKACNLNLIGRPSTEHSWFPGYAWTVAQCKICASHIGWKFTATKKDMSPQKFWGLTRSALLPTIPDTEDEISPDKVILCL
- run-description: Androgen receptor degradation assay using Western blot analysis in LNCaP.FGC cells
- Format: cell-based
- cond: read-out: AR DC50, concentration needed for 50% AR degradation, 24 hr treatment
Reported DC50 values for the following molecules.

[
  {
    "molecule": "CCn1c2c(c3ccc(N4CCN(CC5CN(c6ccc(C(=O)N[C@H]7CC[C@H](Oc8ccc(C#N)c(Cl)c8)CC7)nn6)C5)CC4)cc31)C(=O)N(C1CCC(=O)NC1=O)C2=O (some centres unmarked) [Compound 3]",
    "DC50": "< 10 nM"
  },
  {
    "molecule": "CCn1c2c(c3ccc(N4CCN(CC5CCN(c6ccc(C(=O)N[C@H]7C(C)(C)[C@H](Oc8ccc(C#N)c(Cl)c8)C7(C)C)cc6)CC5)CC4)cc31)C(=O)N(C1CCC(=O)NC1=O)C2=O (some centres unmarked) [Compound 15]",
    "DC50": "25 to 100 nM"
  },
  {
    "molecule": "CCn1c2c(c3ccc(N4CCN(CC5CCN(c6ccc(C(=O)N[C@H]7CC[C@@H](Oc8ccc(C#N)c(Cl)c8)CC7)cn6)CC5)CC4)cc31)C(=O)N(C1CCC(=O)NC1=O)C2=O (some centres unmarked) [Compound 5]",
    "DC50": "25 to 100 nM"
  },
  {
    "molecule": "CCn1c2c(c3ccc(C4CCN(CC5CCN(c6ccc(C(=O)N[C@H]7CC[C@H](Oc8ccc(C#N)c(Cl)c8)CC7)nn6)C5)CC4)cc31)C(=O)N(C1CCC(=O)NC1=O)C2=O (some centres unmarked) [Compound 18]",
    "DC50": "10 to 25 nM"
  }
]

Now let's try a different one.
Incoming: Returns the measured DC50 for the input molecule. Input: CCn1c2c(c3ccc(C4=CCN(CC5CCN(c6ccc(C(=O)N[C@H]7CC[C@H](Oc8ccc(C#N)c(Cl)c8)CC7)nn6)CC5)CC4)cc31)C(=O)N(C1CCC(=O)NC1=O)C2=O (some centres unmarked) [Compound 48]
Outgoing: 10 to 25 nM
